# test.target: EA-activated TRPC5 (Mus musculus, UniProt Q9QX29)
# Construct: expressed in transfected cells; host or cells: HEK293-mTRPC5-YFP
# Sequence (Q9QX29 whole entry): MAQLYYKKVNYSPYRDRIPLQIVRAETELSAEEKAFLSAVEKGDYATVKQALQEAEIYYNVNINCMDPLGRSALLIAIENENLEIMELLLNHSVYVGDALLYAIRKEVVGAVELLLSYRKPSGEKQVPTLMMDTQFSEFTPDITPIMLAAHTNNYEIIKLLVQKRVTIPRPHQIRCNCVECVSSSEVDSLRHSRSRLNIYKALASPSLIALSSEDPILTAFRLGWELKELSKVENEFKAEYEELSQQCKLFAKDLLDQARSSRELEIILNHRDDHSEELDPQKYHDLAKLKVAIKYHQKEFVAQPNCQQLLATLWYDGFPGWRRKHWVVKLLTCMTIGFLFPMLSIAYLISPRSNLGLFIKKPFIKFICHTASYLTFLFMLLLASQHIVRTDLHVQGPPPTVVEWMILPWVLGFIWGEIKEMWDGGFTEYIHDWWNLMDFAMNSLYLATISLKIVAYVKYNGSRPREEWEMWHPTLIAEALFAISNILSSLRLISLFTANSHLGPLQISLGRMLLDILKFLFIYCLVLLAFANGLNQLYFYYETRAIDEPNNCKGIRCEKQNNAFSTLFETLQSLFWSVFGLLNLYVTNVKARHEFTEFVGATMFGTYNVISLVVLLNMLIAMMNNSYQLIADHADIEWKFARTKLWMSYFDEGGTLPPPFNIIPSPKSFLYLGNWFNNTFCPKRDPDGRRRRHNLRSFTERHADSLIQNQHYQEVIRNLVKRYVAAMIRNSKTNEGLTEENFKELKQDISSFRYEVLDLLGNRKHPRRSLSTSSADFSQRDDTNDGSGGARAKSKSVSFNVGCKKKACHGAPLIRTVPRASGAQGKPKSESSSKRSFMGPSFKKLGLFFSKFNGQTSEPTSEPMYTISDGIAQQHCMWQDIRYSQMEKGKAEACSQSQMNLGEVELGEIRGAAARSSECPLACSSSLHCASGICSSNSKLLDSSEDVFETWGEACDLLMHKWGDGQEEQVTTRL
# assay.comment: FLIPR Ca2+ assay, E isomers silencing EA-activated TRPC5 (HEK293-mTRPC5-YFP)
# Type: cell-based
# condition.details: Inhibitory IC50 (versus 50 nM EA) TRPC5, E isomer; 50 nM EA
# Description: Müller, Niemeyer, et al., Schaefer & Thorn-Seshold 2025: Ideal Efficacy Photoswitching of TRPC4/5 in Tissue but it can justify why the affinity of the E/Z-isomers may be similar. […] deliver (Fig. 1-2) is a powerful support for an efficacy switch interpretation. To indirectly support this further, we also measured the effects of E-AzPico and E-AzHC against EA-activated TRPC4/5. […] Supplementary Table 2. […] (a Inhibitory effect measured against 30 nM EA; b Inhibitory effect measured against 50 nM EA). […]
reported.endpoint: IC50 (nM)

I. Cn1c(=O)n(CCCO)c(=O)c2c1nc(Oc1ccc(/N=N/c3ccccc3)c(OC(F)(F)F)c1)n2Cc1ccc(Cl)cc1
II. Cn1c(=O)n(CCCO)c(=O)c2c1nc(Oc1ccc(/N=N/c3ccccc3)c(Cl)c1)n2Cc1ccc(Cl)cc1
Problem: Of I and II , which shows the smaller IC50 value? Lab note: record the label of whichever item you select.
Result: I
(I: 69 nM, II: 177 nM)

Source of measurements: paper PMC12858405
